- MEASUREMENT NOTES: Psilocybin and psilocin plasma pharmacokinetics after s.c. psilocybin
- Assay type: in vivo, rats
- PROTOCOL CONDITIONS: rat, sc; psilocin in plasma after psilocybin 1 mg/kg s.c., rats; read-out: Apparent t1/2, Mean (converted)
- Method: Psilocybin doses of 0.05, 0.1, 1, 10 mg/kg were used to evaluate psilocybin and psilocin PK in rats. For the doses of psilocybin that positively effect behaviors in the low performers in the PR and 5CSRTT, e.g., 0.05-0.1 mg/kg, the corresponding Cm. of psilocin was ˜7±2 ng/ml at 30 minutes for 0.05 mg/kg, and at a dose of 0.1 mg/kg, the Cm. of psilocin was determined to be ˜12±3 ng/ml at 30 minutes (FIG. 5). […]
MEASURED PARAMETER: half-life

CN(C)CCc1c[nH]c2cccc(O)c12 [psilocin, 4-hydroxy-N,N-dimethyltryptamine] yielded half-life of 52.7 min

The origin of these recorded values is patent US20230233584A1.
